# Test Details: in vitro
# Assay Context: human

- Smiles Structure: "O=C1NCC[C@H]1C[C@H](NC(=O)[C@@H]1[C@H]2CCC[C@H]2CN1C(=O)c1cc2c(Cl)cc(Cl)c(F)c2[nH]1)C(=O)CO"
  CC50: "> 10 µM"
- Smiles Structure: "O=C(NC1CC1)C(=O)[C@H](C[C@@H]1CCNC1=O)NC(=O)[C@@H]1CC2(CCN1C(=O)c1cc3c(Cl)cccc3[nH]1)CC2"
  CC50: "> 50 µM"
- Smiles Structure: "O=C1NCC[C@H]1C[C@H](NC(=O)[C@@H]1[C@H]2CCC[C@H]2CN1C(=O)c1cc2c(Cl)ccc(Cl)c2[nH]1)C(=O)CO"
  CC50: "> 50 µM"
- Smiles Structure: "O=C(NCc1ccccc1)C(=O)[C@H](C[C@@H]1CCNC1=O)NC(=O)[C@@H]1C[C@@H](C2CCCCC2)CN1C(=O)c1cc2ccccc2[nH]1"
  CC50: "1 to 10 µM"
- Smiles Structure: "O=C1NCC[C@H]1C[C@H](NC(=O)[C@@H]1[C@H]2CCC[C@H]2CN1C(=O)c1cc2c(Cl)cc(Oc3ccccc3)cc2[nH]1)C(=O)CO"
  CC50: "> 10 µM"
- Smiles Structure: "COc1cccc2[nH]c(C(=O)N3CCC4(CC4)C[C@H]3C(=O)N[C@@H](C[C@@H]3CCCNC3=O)C(=O)CO)cc12"
  CC50: "> 10 µM"

###

# Test Details: in vitro
# Assay Context: human
Reported Metric: CC50

- Molecule: "O=C(NCc1ccccc1)C(=O)[C@H](C[C@@H]1CCNC1=O)NC(=O)[C@@H]1CC2(CCN1C(=O)c1cc3ccccc3[nH]1)CC2 [Compound 24]"
  Value Measured: "> 10 µM"
- Molecule: "O=C(NCc1ccccc1)C(=O)C(C[C@@H]1CCNC1=O)NC(=O)[C@@H]1C[C@@H](C2CC2)CN1C(=O)c1cc2ccccc2[nH]1 (stereo partly drawn) [Compound 40]"
  Value Measured: "> 10 µM"
- Molecule: "O=C1NCC[C@H]1C[C@H](NC(=O)[C@@H]1[C@H]2CCC[C@H]2CN1C(=O)c1cc2c(Cl)ccc(Oc3ccccc3)c2[nH]1)C(=O)CO [Compound 137]"
  Value Measured: "> 10 µM"
- Molecule: "O=C(c1ccccc1)c1c[nH]c(C(=O)N2C[C@@H]3CCC[C@@H]3[C@H]2C(=O)N[C@@H](C[C@@H]2CCNC2=O)C(=O)CO)c1 [Compound 84]"
  Value Measured: "> 50 µM"
- Molecule: "COc1cccc2[nH]c(C(=O)N3C[C@H]4[C@@H]([C@H]3C(=O)N[C@@H](C[C@@H]3CCNC3=O)C(=O)CO)C4(C)C)cc12 [Compound 43]"
  Value Measured: "> 100 µM"
- Molecule: "O=C1NCC[C@H]1C[C@H](NC(=O)[C@@H]1[C@H]2CCC[C@H]2CN1C(=O)c1ccc(-c2ccccc2)[nH]1)C(=O)CO [Compound 144]"
  Value Measured: "> 10 µM"
- Molecule: "COc1cccc2[nH]c(C(=O)N3C[C@@H]4CCC[C@@H]4[C@H]3C(=O)NC(C[C@@H]3CCNC3=O)C(=O)C(=O)NCc3ccccc3)nc12 (stereo partly drawn) [Compound 36]"
  Value Measured: "> 100 µM"
- Molecule: "COc1cccc2[nH]c(C(=O)N3C[C@]4(C[C@H]3C(=O)NC(C=O)C[C@@H]3CCCNC3=O)CC4(F)F)cc12 (stereo partly drawn) [Compound 29]"
  Value Measured: "> 100 µM"
- Molecule: "O=C1NCC[C@H]1C[C@H](NC(=O)[C@@H]1[C@H]2CCC[C@H]2CN1C(=O)c1cc(-c2ccccc2)c[nH]1)C(=O)CO [Compound 79]"
  Value Measured: "> 50 µM"
- Molecule: "COc1cccc2[nH]c(C(=O)N3C[C@@H]4CCC[C@@H]4[C@H]3C(=O)N[C@@H](C[C@@H]3CCNC3=O)C(=O)CO)c(F)c12 [Compound 151]"
  Value Measured: "> 50 µM"
- Molecule: "O=C1NCC[C@H]1C[C@H](NC(=O)[C@@H]1[C@H]2CCC[C@H]2CN1C(=O)c1cc2c(OC(F)F)cc(Cl)cc2[nH]1)C(=O)CO [Compound 126]"
  Value Measured: "> 50 µM"
- Molecule: "O=C1NCC[C@H]1C[C@H](NC(=O)[C@@H]1[C@H]2CCC[C@H]2CN1C(=O)c1cc2c(Cl)ccc(C(F)(F)F)c2[nH]1)C(=O)CO [Compound 117]"
  Value Measured: "> 50 µM"
- Molecule: "COc1cccc2[nH]c(C(=O)N3C[C@]4(C[C@H]3C(=O)NC(C[C@@H]3CCCNC3=O)C(=O)C(N)=O)CC4(F)F)cc12 (stereo partly drawn) [Compound 46]"
  Value Measured: "> 10 µM"
- Molecule: "COc1ccc(F)c2[nH]c(C(=O)N3C[C@@H]4CCC[C@@H]4[C@H]3C(=O)N[C@@H](C[C@@H]3CCNC3=O)C(=O)CO)cc12 [Compound 65]"
  Value Measured: "> 100 µM"
- Molecule: "O=C1NCC[C@H]1C[C@H](NC(=O)[C@@H]1[C@H]2CCC[C@H]2CN1C(=O)c1cc2c(Oc3ccccc3)cccc2[nH]1)C(=O)CO [Compound 123]"
  Value Measured: "> 50 µM"
- Molecule: "COc1cccc2[nH]c(C(=O)N3C[C@H](c4ccccc4)C[C@H]3C(=O)N[C@@H](C[C@@H]3CCNC3=O)C(=O)CO)cc12 [Compound 32]"
  Value Measured: "> 100 µM"
- Molecule: "COc1cccc2[nH]c(C(=O)N3C[C@]4(C[C@H]3C(=O)N[C@@H](C[C@@H]3CCCNC3=O)C(=O)COCc3ccccc3)CC4(F)F)cc12 [Compound 47A]"
  Value Measured: "> 10 µM"
- Molecule: "COc1cccc2[nH]c(C(=O)N3C[C@]4(C[C@H]3C(=O)N[C@@H](C[C@@H]3CCCNC3=O)C(=O)C(=O)NC(C)C)CC4(F)F)cc12 [Compound 34]"
  Value Measured: "> 100 µM"
- Molecule: "COc1cccc2[nH]c(C(=O)N3C[C@@H]4CCC[C@@H]4[C@H]3C(=O)N[C@@H](CN3CCCNC3=O)C(=O)C(=O)NC3CC3)cc12 [Compound 118]"
  Value Measured: "> 10 µM"
- Molecule: "COc1cccc2[nH]c(C(=O)N3C[C@@H]4CCC[C@@H]4[C@H]3C(=O)N[C@@H](Cn3cc[nH]c3=O)C(=O)C(=O)NC3CC3)cc12 [Compound 119]"
  Value Measured: "> 50 µM"
- Molecule: "COc1cccc2[nH]c(C(=O)N3C[C@@H]4CCC[C@@H]4[C@H]3C(=O)N[C@H](C=O)CC3CCNS3(=O)=O)cc12 (stereo partly drawn) [Compound 142]"
  Value Measured: "> 10 µM"
- Molecule: "O=C(NCc1ccccc1)C(=O)C(C[C@@H]1CCCNC1=O)NC(=O)[C@@H]1[C@H]2CCC[C@H]2CN1C(=O)c1cc2ccccc2[nH]1 (stereo partly drawn) [Compound 17]"
  Value Measured: "> 10 µM"
- Molecule: "O=C1NCC[C@H]1C[C@H](NC(=O)[C@@H]1[C@H]2CCC[C@H]2CN1C(=O)c1cc2c(Cl)cccc2[nH]1)C(=O)CO [Compound 60]"
  Value Measured: "> 100 µM"
- Molecule: "O=C[C@H](C[C@@H]1CCCNC1=O)NC(=O)[C@@H]1[C@H]2CCC[C@H]2CN1C(=O)c1cc2ccccc2[nH]1 [Compound 15]"
  Value Measured: "> 100 µM"

###

# Test Details: Cytotoxicity plates without OC43 virus (cell-titer-glo)
# Assay type: cell-based, human
# Assay Context: human; HeLa cells without OC43 virus, class symbols

- Smiles Structure: "O=C(NCCOCC1CCCC1)C(=O)[C@H](C[C@@H]1CCNC1=O)NC(=O)[C@@H]1[C@H]2CCC[C@H]2CN1C(=O)c1cc2c(Cl)cc(Cl)cc2[nH]1"
  CC50 at 6 days: "> 10 µM"
- Smiles Structure: "N#C[C@H](C[C@@H]1CCNC1=O)NC(=O)[C@@H]1[C@H]2CCC[C@H]2CN1C(=O)c1cc2c(Cl)ccc(Cl)c2[nH]1"
  CC50 at 6 days: "> 10 µM"
- Smiles Structure: "O=C(c1ccccc1)c1c[nH]c(C(=O)N2C[C@@H]3CCC[C@@H]3[C@H]2C(=O)N[C@@H](C[C@@H]2CCNC2=O)C(=O)CO)c1"
  CC50 at 6 days: "> 10 µM"

###

Each entry below carries its reported CC50.
# Test Details: in vitro
# Assay Context: human

- Compound: "COc1cccc2[nH]c(C(=O)N3CCc4ccccc4[C@H]3C(=O)N[C@@H](C[C@@H]3CCNC3=O)C(=O)C(=O)NC3CC3)cc12 [Compound 102]"
  CC50: "> 100 µM"
- Compound: "COc1cccc2[nH]c(C(=O)N3C[C@@H]4CCC[C@@H]4[C@H]3C(=O)NC(C[C@@H]3CCNC3=O)C(=O)C(=O)NC3CC3)cc12 (some centres unmarked) [Compound 52]"
  CC50: "> 100 µM"
- Compound: "O=C1NCC[C@H]1C[C@H](NC(=O)[C@@H]1[C@H]2CCC[C@H]2CN1C(=O)c1cc2c(Cl)cc(C(F)(F)F)cc2[nH]1)C(=O)CO [Compound 161]"
  CC50: "> 10 µM"
- Compound: "CC(C)OCCNC(=O)C(=O)[C@H](C[C@@H]1CCNC1=O)NC(=O)[C@@H]1[C@H]2CCC[C@H]2CN1C(=O)c1cc2c(Cl)cc(Cl)cc2[nH]1 [Compound 173]"
  CC50: "1 to 10 µM"
- Compound: "COc1cccc2[nH]c(C(=O)N3CC4(CC4)C[C@H]3C(=O)N[C@@H](C[C@@H]3CCNC3=O)C(=O)CO)cc12 [Compound 31]"
  CC50: "> 100 µM"
- Compound: "O=C(NC1CC1)C(=O)[C@H](C[C@@H]1CCNC1=O)NC(=O)[C@@H]1CC2(CCN1C(=O)c1cc3c(Cl)cc(Cl)cc3[nH]1)CC2 [Compound 141]"
  CC50: "> 10 µM"
- Compound: "COc1cccc2[nH]c(C(=O)N3C[C@@H]4CCC[C@@H]4[C@H]3C(=O)N[C@@H](C[C@@H]3CCNC3=O)C(=O)c3ncc[nH]3)cc12 [Compound 54]"
  CC50: "> 100 µM"
- Compound: "CC1(C)[C@@H]2[C@@H](C(=O)N[C@@H](C[C@@H]3CCNC3=O)C(=O)CO)N(C(=O)c3cc4c(Cl)cc(Cl)cc4[nH]3)C[C@@H]21 [Compound 127]"
  CC50: "> 10 µM"
- Compound: "O=C1NCC[C@H]1C[C@H](NC(=O)[C@@H]1[C@H]2[C@H]3CC[C@H](C3)[C@H]2CN1C(=O)c1cc2c(Cl)cc(Cl)cc2[nH]1)C(=O)CO [Compound 135]"
  CC50: "> 10 µM"
- Compound: "COc1cc(C(F)(F)F)cc2[nH]c(C(=O)N3C[C@@H]4CCC[C@@H]4[C@H]3C(=O)N[C@@H](C[C@@H]3CCNC3=O)C(=O)CO)cc12 [Compound 163]"
  CC50: "> 50 µM"
- Compound: "CC1(C)CCN(C(=O)c2cc3ccccc3[nH]2)[C@H](C(=O)NC(C[C@@H]2CCNC2=O)C(=O)C(=O)NCc2ccccc2)C1 (some centres unmarked) [Compound 26]"
  CC50: "> 100 µM"
- Compound: "O=C(NCc1ccccc1)C(=O)C(C[C@@H]1CCNC1=O)NC(=O)[C@@H]1C[C@@H](C(F)(F)F)CN1C(=O)c1cc2ccccc2[nH]1 (some centres unmarked) [Compound 19]"
  CC50: "> 10 µM"
- Compound: "COc1cc(Cl)cc2[nH]c(C(=O)N3C[C@@H]4CCC[C@@H]4[C@H]3C(=O)N[C@@H](C[C@@H]3CCNC3=O)C(=O)CO)cc12 [Compound 88]"
  CC50: "> 10 µM"
- Compound: "C=CC12CN(C(=O)c3cc4c(OC)cccc4[nH]3)C(C(=O)N[C@@H](C[C@@H]3CCNC3=O)C(=O)C(=O)NC3CC3)(C1)C2 [Compound 98]"
  CC50: "> 50 µM"
- Compound: "COc1cccc2[nH]c(C(=O)N3C[C@@H]4CCCC[C@@H]4[C@H]3C(=O)N[C@@H](C[C@@H]3CCCNC3=O)C(=O)COCc3ccccc3)cc12 (single isomer, unassigned) [Compound 59A_1]"
  CC50: "> 10 µM"
- Compound: "COc1cccc2[nH]c(C(=O)N3CCC4(CC4)C[C@H]3C(=O)N[C@@H](C[C@@H]3CCNC3=O)C(=O)C(=O)NC3CC3)cc12 [Compound 179]"
  CC50: "> 10 µM"
- Compound: "COc1cccc2[nH]c(C(=O)N3C[C@@H]4CCC[C@@H]4[C@H]3C(=O)NC(C[C@@H]3CCNC3=O)C(=O)C(N)=O)cc12 (some centres unmarked) [Compound 56]"
  CC50: "> 100 µM"
- Compound: "COc1cccc2[nH]c(C(=O)N3C[C@]4(C[C@H]3C(=O)N[C@@H](C[C@@H]3CCNC3=O)C(=O)CO)CC4(F)F)cc12 [Compound 39]"
  CC50: "> 100 µM"
- Compound: "COc1cccc2[nH]c(C(=O)N3C[C@@H]4CCC[C@@H]4[C@H]3C(=O)N[C@@H](CC3CC(C)(C)NC3=O)C(=O)CO)cc12 (relative stereo) [Compound 70_1]"
  CC50: "> 10 µM"
- Compound: "Cc1cccc2[nH]c(C(=O)N3CCC4(CC4)C[C@H]3C(=O)N[C@@H](C[C@@H]3CCNC3=O)C(=O)C(=O)NC3CC3)cc12 [Compound 169]"
  CC50: "> 10 µM"
- Compound: "COc1cccc2[nH]c(C(=O)N3C[C@@H]4CCC[C@@H]4[C@H]3C(=O)N[C@@H](C[C@@H]3CCNC3=O)C(=O)CO)cc12 [Compound 27]"
  CC50: "> 100 µM"
- Compound: "N#Cc1cccc2[nH]c(C(=O)N3C[C@@H]4CCC[C@@H]4[C@H]3C(=O)NC(C[C@@H]3CCNC3=O)C(=O)COCc3ccccc3)cc12 (some centres unmarked) [Compound 66A]"
  CC50: "> 10 µM"
- Compound: "COc1cccc2[nH]c(C(=O)N3C[C@@H]4CCC[C@@H]4[C@H]3C(=O)N[C@@H](C[C@@H]3CCNC3=O)C(=O)CO)nc12 [Compound 37]"
  CC50: "> 100 µM"

Data origin, for the record: patent US11952365B2
